Experiment: In vitro metabolism in human hepatic microsomal fractions (HLM half-life)
Type: in vitro ADME
Details: pH 7.4; human liver microsomes, initial substrate concentration 1 μM, 37° C.; read-out: HLM t1/2
reportedMetric: half-life at 1 μM (min)
Answers are plain numbers, in min.

Please fill in: half-life at 1 μM reported for CCCCOc1ncc(C(C)=O)cc1-c1nn2c(CC)nc(C)c2c(=O)[nH]1 [Example 1] = 21

* * *

Target: cGMP PDE5 (human corp. cav.) (Homo sapiens)
reportedMetric: pIC50
One number for each entry, as −log10 of the molar value.

pIC50 reported for this molecule CCCCOc1ncc(C(C)=O)cc1-c1nn2c(CC)nc(CCC)c2c(=O)[nH]1 : 8.71

Hello, the source for this data is patent US6794387B2, in case you need it.
